Saccharide composition of hydrolysate by α-glucosidase: Other saccharides values, listed per item
- Tested on: α-glucosidase
- assay-protocol: Hydrolysis by α-glucosidase derived from rice
- Assay type: biochemical
- protocol-conditions: pH 4.0, 37°C., 18 hours
A number alone suffices; assume %.

molecule-smiles	experimental-target	numeric-readout
OC[C@H]1O[C@H](O[C@H]2O[C@H](CO)[C@@H](O[C@H]3O[C@H](CO)[C@@H](O)[C@H](O)[C@H]3O)[C@H](O)[C@H]2O)[C@H](O)[C@@H](O)[C@@H]1O	α-glucosidase	0.5

Query string: State Saccharide composition of hydrolysate by α-glucosidase: Other saccharides on α-glucosidase. Entry: OC[C@H]1O[C@H](O[C@H]2O[C@H](CO)[C@@H](O[C@H]3O[C@H](CO)[C@@H](O[C@H]4O[C@H](CO)[C@@H](O[C@H]5O[C@H](CO)[C@@H](O)[C@H](O)[C@H]5O)[C@H](O)[C@H]4O)[C@H](O)[C@H]3O)[C@H](O)[C@H]2O)[C@H](O)[C@@H](O)[C@@H]1O
Result string: 0.2

Query string: Look up and report Saccharide composition of hydrolysate by α-glucosidase: Other saccharides, with α-glucosidase as system, for OC[C@H]1O[C@H](O[C@H]2O[C@H](CO)[C@@H](O[C@H]3O[C@H](CO)[C@@H](O[C@H]4O[C@H](CO)[C@@H](O[C@H]5O[C@H](CO)[C@@H](O[C@H]6O[C@H](CO)[C@@H](O[C@H]7O[C@H](CO)[C@@H](O)[C@H](O)[C@H]7O)[C@H](O)[C@H]6O)[C@H](O)[C@H]5O)[C@H](O)[C@H]4O)[C@H](O)[C@H]3O)[C@H](O)[C@H]2O)[C@H](O)[C@@H](O)[C@@H]1O
Result string: 0.3

Query string: Report Saccharide composition of hydrolysate by α-glucosidase: Other saccharides under test system α-glucosidase for OC[C@H]1O[C@H](O[C@H]2O[C@H](CO)[C@@H](O[C@H]3O[C@H](CO)[C@@H](O[C@H]4O[C@H](CO)[C@@H](O)[C@H](O)[C@H]4O)[C@H](O)[C@H]3O)[C@H](O)[C@H]2O)[C@H](O)[C@@H](O)[C@@H]1O .
Result string: 0.3

Query string: // fetch Saccharide composition of hydrolysate by α-glucosidase: Other saccharides for OC[C@H]1O[C@H](O[C@H]2O[C@H](CO)[C@@H](O[C@H]3O[C@H](CO)[C@@H](O[C@H]4O[C@H](CO)[C@@H](O[C@H]5O[C@H](CO)[C@@H](O[C@H]6O[C@H](CO)[C@@H](O)[C@H](O)[C@H]6O)[C@H](O)[C@H]5O)[C@H](O)[C@H]4O)[C@H](O)[C@H]3O)[C@H](O)[C@H]2O)[C@H](O)[C@@H](O)[C@@H]1O ; system: α-glucosidase
Result string: 0.3

====

- assay-protocol: Maillard reaction with glycine, absorbance at 480 nm
- Assay type: physicochemical
- protocol-conditions: one % glycine, 10% saccharide, pH 7.0, 100°C., 90 min, 1-cm cell
value-type: Coloration degree (480 nm)
Answer field: number only, no words.

# example entries with known answers
molecule	Coloration degree (480 nm)
OC[C@H]1O[C@H](O[C@H]2O[C@H](CO)[C@@H](O)[C@H](O)[C@H]2O)[C@H](O)[C@@H](O)[C@@H]1O	0.006
OC[C@H]1O[C@H](O[C@H]2O[C@H](CO)[C@@H](O[C@H]3O[C@H](CO)[C@@H](O[C@H]4O[C@H](CO)[C@@H](O[C@H]5O[C@H](CO)[C@@H](O)[C@H](O)[C@H]5O)[C@H](O)[C@H]4O)[C@H](O)[C@H]3O)[C@H](O)[C@H]2O)[C@H](O)[C@@H](O)[C@@H]1O	0.012
OC[C@H]1O[C@H](O[C@H]2[C@H](O)[C@@H](O)[C@@H](O[C@H]3[C@H](O)[C@@H](O)[C@@H](O[C@H]4[C@H](O)[C@@H](O)C(O)O[C@@H]4CO)O[C@@H]3CO)O[C@@H]2CO)[C@H](O)[C@@H](O)[C@@H]1O (stereo partly shown)	0.475

Next up:
Query string: # return recorded Coloration degree (480 nm) for entry OC[C@H]1O[C@H](O[C@H]2O[C@H](CO)[C@@H](O[C@H]3O[C@H](CO)[C@@H](O[C@H]4O[C@H](CO)[C@@H](O)[C@H](O)[C@H]4O)[C@H](O)[C@H]3O)[C@H](O)[C@H]2O)[C@H](O)[C@@H](O)[C@@H]1O
Result string: 0.018
